system: Yap1 mRNA; assay: Dose-dependent inhibition of human Yap1 in A-431 cells (Example 8, 10,000 cells per well, RTS4814); type: cell-based; conditions: 2000.00 nM; A-431 cells, 10,000 cells per well, free uptake, approximately 48 hours, RTS4814
Strand notation (5' to 3'): a small letter for the sugar, then the base; units joined by * are phosphorothioate-linked, units joined directly phosphodiester-linked; [ ] holds rarer units or linkages, { } end groups; capitals alone tell only the bases. k = constrained ethyl (cEt); [5mC] = 5-methylcytosine; d = 2'-deoxy (DNA)
quantity.measured: Yap1 mRNA, % UTC (% UTC)
Form entry: value (% UTC) — number only.

The cases that follow already have their Yap1 mRNA, % UTC on record.
1074576 (DNA kA*kT*kG*d[5mC]*dA*d[5mC]*dA*dT*dT*dA*dT*dG*dA*kA*k[5mC]*k[5mC]) [compound 1074576]
9
1074726 (antisense kG*kG*kT*dA*dT*dA*dA*d[5mC]*dT*dG*dG*dG*d[5mC]*kA*kA*kA) [compound 1074726]
3

Entry 1074627 (DNA k[5mC]*k[5mC]*kT*dG*dT*dT*dA*dT*dG*dA*dA*d[5mC]*d[5mC]*k[5mC]*kT*kT; antisense) [compound 1074627] — recorded Yap1 mRNA, % UTC = 3

----------
Listing of recorded BAS by entry.
experiment: Cynomolgus monkey tolerability, hematology (Example 34); assay type: in vivo, cynomolgus monkeys; settings: cynomolgus monkey, in vivo, sc, 35 mg/kg
Reply with just the number (in %).

Worked examples follow.
1198872 (TGTATGTCAGAAGAGT; chemically modified gapmer, further chemistry not given here) [compound 1198872]
0.3
1198605 (GTAATATTGCAATCTG; modified gapmer, further chemistry not given here) [compound 1198605]
0.4

So, 1197270 (TTAAAGTGTATGTCAG; cEt gapmer with 2'-OMe nucleoside, phosphorothioate, further chemistry not given here) [compound 1197270] ? Its BAS was 0.4

----------
test: Tolerability in Sprague-Dawley rats, plasma chemistry markers (Example 22); assay type: in vivo; settings: male Sprague-Dawley rats, 50 mg/kg s.c. weekly for 6 weeks (7 doses), 48 hours after last dose
Binary label based on BUN with cut-off 20 mg/dL: below gives Met, not below gives Not met.

Here's what some known entries look like.
1198728 (TATTAGAGTATGTGGC; modified gapmer, further chemistry not given here) [compound 1198728]
Not met
1198623 (CTAAGTAAGGTTTCCC; modified gapmer, further chemistry not given here) [compound 1198623]
Not met
1197270 (TTAAAGTGTATGTCAG; cEt gapmer with 2'-OMe nucleoside, phosphorothioate, further chemistry not given here) [compound 1197270]
Not met
1198872 (TGTATGTCAGAAGAGT; chemically modified gapmer, further chemistry not given here) [compound 1198872]
Met
1198605 (GTAATATTGCAATCTG; modified gapmer, further chemistry not given here) [compound 1198605]
Met

Query: Does the reported BUN of 1198831 (CACTTTTACATTAGGA; chemically modified gapmer, further chemistry not given here) [compound 1198831] stay below 20 mg/dL?
Reply: Not met

----------
YAP1 (% UTC) by entry:
test system: Yap1 mRNA; assay: Antisense inhibition of human Yap1 in A-431 cells by cEt gapmers, single dose (Example 4, RTS4814); format: cell-based; settings: Yap1 mRNA remaining as percent of untreated control; 3-10-3 cEt gapmers; A-431 cells; Table 37
Strand notation (5' to 3'): a small letter for the sugar, then the base; units joined by * are phosphorothioate-linked, units joined directly phosphodiester-linked; [ ] holds rarer units or linkages, { } end groups; capitals alone tell only the bases. k = constrained ethyl (cEt); [5mC] = 5-methylcytosine; d = 2'-deoxy (DNA)
Respond numerically; units are % UTC and should not be typed.

Field: example entries. Status: answers known.
958499 (ATTAGAGTATGTGGCA; 3-10-3 cEt gapmer, further chemistry not given here) [compound 958499]
2
1075415 (antisense k[5mC]*kA*kT*dT*dA*dA*dA*dT*dG*dA*d[5mC]*dA*dG*k[5mC]*k[5mC]*kT) [compound 1075415]
52

Next item in the queue.
Quick note, YAP1 (% UTC) for 1075383 (antisense kA*kA*kT*dT*dA*dT*dT*dA*d[5mC]*d[5mC]*d[5mC]*dT*dA*k[5mC]*kT*k[5mC]) [compound 1075383] landed at 45

----------
tested on: Yap1 mRNA; test: Antisense inhibition of human Yap1 in A-431 cells by cEt gapmers, single dose (Example 3, RTS36584); assay type: cell-based; conditions: Table 13; A-431 cells, 5,000 cells per well, free uptake, 2,000 nM modified oligonucleotide, approx. 48 hours; RTS36584; normalized to RIBOGREEN; Yap1 mRNA relative to untreated control cells
Strand notation (5' to 3'): a small letter for the sugar, then the base; units joined by * are phosphorothioate-linked, units joined directly phosphodiester-linked; [ ] holds rarer units or linkages, { } end groups; capitals alone tell only the bases. k = constrained ethyl (cEt); [5mC] = 5-methylcytosine; d = 2'-deoxy (DNA)
Parameter YAP1 (% UTC): see the listing below.
Hi, when you answer, please include the unit after the number. Thanks!

Example results:
958720 (antisense kG*kT*k[5mC]*dT*dA*d[5mC]*dT*dA*dG*dA*dG*d[5mC]*dT*kG*k[5mC]*k[5mC]) [Compound 958720]
12 % UTC
958785 (antisense kG*k[5mC]*kA*dA*dT*d[5mC]*d[5mC]*dA*d[5mC]*dA*dA*dT*dT*k[5mC]*k[5mC]*kA) [Compound 958785]
2 % UTC
958745 (antisense kT*k[5mC]*k[5mC]*d[5mC]*dA*dG*d[5mC]*d[5mC]*dG*d[5mC]*dA*dT*dG*kG*k[5mC]*kT) [Compound 958745]
78 % UTC
958735 (antisense kA*kG*k[5mC]*dA*dA*dT*d[5mC]*dT*dT*dG*dT*dG*dG*kA*kT*k[5mC]) [Compound 958735]
7 % UTC

Recorded result, 958755 (antisense kT*kA*kA*d[5mC]*dA*dT*dA*dA*dG*dA*d[5mC]*dA*d[5mC]*kG*kG*kA) [Compound 958755] , YAP1 (% UTC): 12 % UTC

Notebook: 958705 (antisense kG*kG*k[5mC]*d[5mC]*dA*dT*d[5mC]*dA*dA*dT*dA*dA*dA*kG*kA*k[5mC]) [Compound 958705] , YAP1 (% UTC) read as 112 % UTC

Notebook: 958450 (antisense kG*kG*kT*d[5mC]*dG*d[5mC]*d[5mC]*dG*d[5mC]*dG*dG*dG*dT*kG*k[5mC]*k[5mC]) [Compound 958450] , YAP1 (% UTC) read as 59 % UTC

YAP1 (% UTC) reading for 958810 (kT*kT*kA*dT*dA*dT*dA*d[5mC]*dG*dG*dG*dA*dA*kA*kA*kT; antisense) [Compound 958810] : 47 % UTC

Entry 958750 (antisense kT*kG*kT*dA*dA*dG*dA*dG*dG*dA*dG*dA*d[5mC]*k[5mC]*kA*k[5mC]) [Compound 958750] ; YAP1 (% UTC) = 28 % UTC

958460 (antisense kT*k[5mC]*kG*d[5mC]*dA*dT*d[5mC]*dT*dG*dT*dT*dG*d[5mC]*kT*kG*k[5mC]) [Compound 958460] yielded YAP1 (% UTC) of 52 % UTC

Short answer for 958780 (antisense kT*k[5mC]*kA*dA*d[5mC]*dT*dA*d[5mC]*dT*dT*dT*dT*d[5mC]*kA*kG*k[5mC]) [Compound 958780] : YAP1 (% UTC) was 24 % UTC

According to the records, this substance 958525 (kA*kT*kG*dA*dA*dG*dG*dT*dA*dA*dA*d[5mC]*d[5mC]*kA*k[5mC]*kT; antisense) [Compound 958525] displays YAP1 (% UTC) of 3 % UTC

----------
experiment: Tolerability in Balb/c mice, plasma chemistry markers (Example 14); type: in vivo; conditions: male Balb/c mice, 50 mg/kg s.c. twice a week for four weeks (8 treatments), day 27
Strand notation (5' to 3'): a small letter for the sugar, then the base; units joined by * are phosphorothioate-linked, units joined directly phosphodiester-linked; [ ] holds rarer units or linkages, { } end groups; capitals alone tell only the bases. k = constrained ethyl (cEt); [5mC] = 5-methylcytosine; d = 2'-deoxy (DNA)
quantity.measured: BUN (mg/dL)
Kindly provide the numeric value in mg/dL only, without the unit symbol.

Some entries whose results are on file:
958534 (kT*kT*k[5mC]*dA*dG*d[5mC]*dA*dT*dA*dG*dA*dA*dG*kT*kA*kG; antisense) [compound 958534]
26
958622 (kG*kA*kT*dA*dT*dT*d[5mC]*d[5mC]*dG*d[5mC]*dA*dT*dT*kG*k[5mC]*k[5mC]; antisense) [compound 958622]
23
958589 (kG*kT*kA*dA*dA*dG*dG*dA*dA*dG*dA*dT*d[5mC]*kT*k[5mC]*k[5mC]; antisense) [compound 958589]
24
958497 (kA*kT*kA*dT*dG*dG*dA*dA*dA*dT*dT*dG*dT*k[5mC]*kT*k[5mC]) [compound 958497]
26
958596 (kA*kG*k[5mC]*dA*dG*dT*dT*dA*dA*dG*d[5mC]*dA*d[5mC]*kT*kT*kT; antisense) [compound 958596]
24

Now for a further substance.
Sure, the documented BUN for 958739 (kA*kG*k[5mC]*dA*dA*dT*dA*dG*dA*dG*dT*dA*dA*k[5mC]*k[5mC]*kA; antisense) [compound 958739] is 21
